Biological target: glucose-6-phosphate dehydrogenase-6-phosphogluconolactonase (PfGluPho), Plasmodium falciparum 3D7
Experiment: inhibition of P. falciparum G6PD activity – biochemical, fluorescence intensity, set 2, SAR follow-up (AID 588671)
Details: recombinant PfGluPho, diaphorase-resazurin NADPH fluorescence
Activity calls are given as the source filed them.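 The calls were made as follows: active = IC50 at or below 20 µM; inactive = the rest.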
Possible outcomes: true for active, false for inactive

[[record]]
molecule = "O=C(NCCN1CCCC1)c1ccc2c(c1)NC(=O)c1ccccc1O2"
assigned_label = "false"

[[record]]
molecule = "CCN1CCCC1CNC(=O)c1ccc2c(c1)NC(=O)c1ccccc1S2 (configuration not stated)"
assigned_label = "true"

[[record]]
molecule = "O=C1COc2ccc(C(=O)NCCN3CCCCC3)cc2N1"
assigned_label = "false"

[[record]]
molecule = "O=C1Nc2cc(C(=O)NCCN3CCOCC3)ccc2S/C1=C\\c1ccccc1F"
assigned_label = "false"

[[record]]
molecule = "O=C(NCCN1CCCCC1)c1ccc2c(c1)NC(=O)c1ccccc1O2"
assigned_label = "false"

[[record]]
molecule = "CCN1CCCC1CNC(=O)c1ccc2c(c1)NC(=O)CS2 (configuration not stated)"
assigned_label = "false"

[[record]]
molecule = "CCN1CCCC1CNC(=O)c1ccc2c(c1)NC(=O)/C(=C/c1cccc3ccccc13)S2 (configuration not stated)"
assigned_label = "true"

[[record]]
molecule = "CN(C)CCNC(=O)c1ccc2c(c1)NC(=O)CO2"
assigned_label = "false"

[[record]]
molecule = "CN1CCN(C(=O)c2ccc3c(c2)NC(=O)/C(=C/c2ccccc2Cl)S3)CC1"
assigned_label = "false"

[[record]]
molecule = "O=C1Nc2cc(C(=O)NCCN3CCCCC3)ccc2S/C1=C\\c1ccccc1F"
assigned_label = "false"

[[record]]
molecule = "O=C1COc2ccc(C(=O)NCCN3CCOCC3)cc2N1"
assigned_label = "false"

[[record]]
molecule = "CCN(CC)CCNC(=O)c1ccc2c(c1)NC(=O)c1ccccc1O2"
assigned_label = "false"

[[record]]
molecule = "O=C1Nc2cc(C(=O)NCc3ccccc3)ccc2S/C1=C\\c1ccccc1F"
assigned_label = "false"

[[record]]
molecule = "O=C(NCCN1CCCC1)c1ccc2c(c1)NC(=O)c1ccccc1S2"
assigned_label = "false"

[[record]]
molecule = "CN(C)CCNC(=O)c1ccc2c(c1)NC(=O)c1ccccc1O2"
assigned_label = "false"

[[record]]
molecule = "CCN1CCC[C@@H]1CNC(=O)c1ccc2c(c1)NC(=O)/C(=C/c1ccccc1F)S2"
assigned_label = "true"

[[record]]
molecule = "O=C1COc2ccc(C(=O)NCCN3CCCC3)cc2N1"
assigned_label = "false"

[[record]]
molecule = "CCN1CCCC1CNC(=O)c1ccc2c(c1)NC(=O)/C(=C/c1ccccc1OC)S2 (configuration not stated)"
assigned_label = "true"

[[record]]
molecule = "CN1CCCC1CCNC(=O)c1ccc2c(c1)NC(=O)/C(=C/c1ccccc1F)S2 (configuration not stated)"
assigned_label = "false"

[[record]]
molecule = "CCN1CCC[C@H]1CNC(=O)c1ccc2c(c1)NC(=O)/C(=C/c1ccccc1F)S2"
assigned_label = "true"

[[record]]
molecule = "CCN(CC)CCNC(=O)c1ccc2c(c1)NC(=O)CO2"
assigned_label = "false"

[[record]]
molecule = "CCN1CCCC1CNC(=O)c1ccc2c(c1)NC(=O)CO2 (configuration not stated)"
assigned_label = "false"


###

Target: glucose-6-phosphate dehydrogenase-6-phosphogluconolactonase (PfGluPho), Plasmodium falciparum 3D7
Experiment: inhibition of P. falciparum G6PD activity – biochemical, fluorescence intensity, set 2, SAR follow-up (AID 588671)
Conditions: recombinant PfGluPho, diaphorase-resazurin NADPH fluorescence
Activity calls are given as the source filed them.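 Rule for the calls: active = IC50 at or below 20 µM; inactive = the rest.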
ENDPOINT: IC50

[[record]]
molecule = "CCN1CCCC1CNC(=O)c1ccc2c(c1)NC(=O)c1ccccc1O2 (stereo not given)"
data_value = "inactive"

[[record]]
molecule = "O=C(NCCN1CCOCC1)c1ccc2c(c1)NC(=O)c1ccccc1O2"
data_value = "> 80 µM (inactive)"

[[record]]
molecule = "CCN(CC)CCNC(=O)c1ccc2c(c1)NC(=O)c1ccccc1S2"
data_value = "inactive"

[[record]]
molecule = "CCN1CCCC1CNC(=O)c1ccc2c(c1)NC(=O)/C(=C/c1ccccc1C)S2 (stereo not given)"
data_value = "5.93 µM"

[[record]]
molecule = "CCN1CCCC1CNC(=O)c1ccc2c(c1)NC(=O)/C(=C/c1ccccc1F)S2 (stereo not given)"
data_value = "1.71 µM"

